- System: hemoglobin-haptoglobin complex
- Test Details: Stability of hemoglobin (as hemoglobin-haptoglobin complex) in samples preserved at 37° C. in preservation solution containing 1 unit/L haptoglobin, Hb measured by latex agglutination method (Examples 1 to 7)
- Design: species or system human
- Conditions Used: Feces 1; sugar 100 mmol/L + phenylboronic acid 15 mmol/L; 37° C., 21 days
Kindly supply the reported Hb concentration values for the records listed here.
Answers are plain numbers, in µg/L.

Use the examples below as a reference point.
>>> print(df.to_string())
                            chemical_string      test_readout  measurement_unit  observed
0        O=C(CO)[C@@H](O)[C@H](O)[C@H](O)CO  Hb concentration              µg/L       228
1  OC[C@H]1O[C@H](O[C@H]2O[C@H](CO)[C@@H](O)[C@H](O)[C@H]2O)[C@H](O)[C@@H](O)[C@@H]1O  Hb concentration              µg/L       230

Hi there! I need Hb concentration for each item below, if you can.
1. OC[C@@H](O)[C@@H](O)[C@H](O)[C@@H](O)CO
2. OC[C@H]1O[C@@](CO)(O[C@H]2O[C@H](CO)[C@@H](O)[C@H](O)[C@H]2O)[C@@H](O)[C@@H]1O

Result:
[290, 258]

----------
- Target Or System: hemoglobin (Homo sapiens, UniProt P68871+P69905)
- Sequence (P69905 2-142): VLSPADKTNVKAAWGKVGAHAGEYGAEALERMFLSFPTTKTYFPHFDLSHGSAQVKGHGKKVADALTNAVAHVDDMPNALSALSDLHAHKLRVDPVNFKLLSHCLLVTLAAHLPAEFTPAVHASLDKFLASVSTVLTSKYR
- Sequence (P68871 2-147): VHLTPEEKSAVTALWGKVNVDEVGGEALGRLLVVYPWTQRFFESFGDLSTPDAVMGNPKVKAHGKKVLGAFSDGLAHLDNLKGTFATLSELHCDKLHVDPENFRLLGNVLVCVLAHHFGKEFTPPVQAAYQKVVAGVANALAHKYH
- Test Details: Stability of hemoglobin in samples preserved at 37° C. in preservation solution containing no haptoglobin, Hb measured by latex agglutination method (Examples 8, 9 and Table 10)
- Conditions Used: No feces; 38 h at 37° C.; no phenylboronic acid, sugar 100 mmol/L
What Recovery ratio with respect to Hb after 0 days was measured for each of the following?

Sample records with Recovery ratio with respect to Hb after 0 days:
>>> df
                                   compound  observed
0  O=C(CO)[C@@H](O)[C@H](O)[C@H](O)CO [Fructose, fructose]       82%
1  OC[C@H]1O[C@@](CO)(O[C@H]2O[C@H](CO)[C@@H](O)[C@H](O)[C@H]2O)[C@@H](O)[C@@H]1O [Sucrose, sucrose]       83%
2  OC[C@@H](O)[C@@H](O)[C@H](O)[C@@H](O)CO [Sorbitol, sorbitol]       82%
3  OC[C@H]1O[C@H](O[C@H]2O[C@H](CO)[C@@H](O)[C@H](O)[C@H]2O)[C@H](O)[C@@H](O)[C@@H]1O [Trehalose, trehalose]       81%

// sample OC[C@@H](O)[C@@H](O)[C@H](O)[C@H](O)CO [Mannitol, mannitol] , its Recovery ratio with respect to Hb after 0 days was 84%

----------
- Tested on: hemoglobin-haptoglobin complex
- Test Details: Stability of hemoglobin (as hemoglobin-haptoglobin complex) in samples preserved at 37° C. in preservation solution containing 1 unit/L haptoglobin, Hb measured by latex agglutination method (Examples 1 to 7)
- Design: species or system human
- Conditions Used: Feces 3; sugar 50 mmol/L + phenylboronic acid 15 mmol/L; 37° C., 0 days
Provide the recorded Hb concentration for the entries that follow.
Give bare numbers, in µg/L.

Examples from the recorded data:
>>> df
                            chemical_string  observed
0  OC[C@H]1O[C@H](O[C@H]2O[C@H](CO)[C@@H](O)[C@H](O)[C@H]2O)[C@H](O)[C@@H](O)[C@@H]1O       282
1        O=C(CO)[C@@H](O)[C@H](O)[C@H](O)CO       272
2  OC[C@H]1O[C@@](CO)(O[C@H]2O[C@H](CO)[C@@H](O)[C@H](O)[C@H]2O)[C@@H](O)[C@@H]1O       286
3   OC[C@@H](O)[C@@H](O)[C@H](O)[C@@H](O)CO       283

Could you now look at the following molecule, please?
The reported Hb concentration of the molecule `OC[C@@H](O)[C@@H](O)[C@H](O)[C@H](O)CO` was 293

----------
- System: hemoglobin-haptoglobin complex
- Test Details: Stability of hemoglobin (as hemoglobin-haptoglobin complex) in samples preserved at 37° C. in preservation solution containing 1 unit/L haptoglobin, Hb measured by latex agglutination method (Examples 1 to 7)
- Design: species or system human
- Conditions Used: Feces 3; sugar 100 mmol/L, no phenylboronic acid; 37° C., 14 days
For each record, write down the corresponding Hb concentration.
Answers are plain numbers, in µg/L.

Past entries and their recorded results:
>>> print(df.to_string())
                                   compound      test_readout  observed
0  OC[C@@H](O)[C@@H](O)[C@H](O)[C@H](O)CO [Mannitol, mannitol]  Hb concentration        78
1  OC[C@H]1O[C@H](O[C@H]2O[C@H](CO)[C@@H](O)[C@H](O)[C@H]2O)[C@H](O)[C@@H](O)[C@@H]1O [Trehalose, trehalose]  Hb concentration        56
2  O=C(CO)[C@@H](O)[C@H](O)[C@H](O)CO [Fructose, fructose]  Hb concentration        41
3  OC[C@@H](O)[C@@H](O)[C@H](O)[C@@H](O)CO [Sorbitol, sorbitol]  Hb concentration        62

# value of Hb concentration, hemoglobin-haptoglobin complex, item OC[C@H]1O[C@@](CO)(O[C@H]2O[C@H](CO)[C@@H](O)[C@H](O)[C@H]2O)[C@@H](O)[C@@H]1O [Sucrose, sucrose] = 55

----------
Consider the following compounds; for each one, report its Recovery ratio with respect to Hb after 0 days.
- Target Or System: hemoglobin (Homo sapiens, UniProt P68871+P69905)
- Test Details: Stability of hemoglobin in samples preserved at 37° C. in preservation solution containing no haptoglobin, Hb measured by latex agglutination method (Examples 8, 9 and Table 10)
- Conditions Used: Feces 2; 16 h at 37° C.; no phenylboronic acid, sugar 100 mmol/L
Answers are plain numbers, in %.

                            chemical_string                          target_or_system  observed
0   OC[C@@H](O)[C@@H](O)[C@H](O)[C@@H](O)CO  hemoglobin (Homo sapiens, UniProt P68871+P69905)        22
1        O=C(CO)[C@@H](O)[C@H](O)[C@H](O)CO  hemoglobin (Homo sapiens, UniProt P68871+P69905)        22
2  OC[C@H]1O[C@H](O[C@H]2O[C@H](CO)[C@@H](O)[C@H](O)[C@H]2O)[C@H](O)[C@@H](O)[C@@H]1O  hemoglobin (Homo sapiens, UniProt P68871+P69905)        21

Lab note: each compound below needs its Recovery ratio with respect to Hb after 0 days filled in.
1. OC[C@@H](O)[C@@H](O)[C@H](O)[C@H](O)CO
2. OC[C@H]1O[C@@](CO)(O[C@H]2O[C@H](CO)[C@@H](O)[C@H](O)[C@H]2O)[C@@H](O)[C@@H]1O

Result:
1: 21; 2: 22

----------
- Target Or System: hemoglobin (Homo sapiens, UniProt P68871+P69905)
- Test Details: Stability of hemoglobin in samples preserved at 37° C. in preservation solution containing no haptoglobin, Hb measured by latex agglutination method (Examples 8, 9 and Table 10)
- Conditions Used: No feces; 62 h at 37° C.; no phenylboronic acid, sugar 100 mmol/L
Test Readout: Hb concentration (µg/L)
Numbers only, in µg/L.

Example results:
In [3]: df
Out[3]:
                            chemical_string                          target_or_system  observed
0  OC[C@H]1O[C@@](CO)(O[C@H]2O[C@H](CO)[C@@H](O)[C@H](O)[C@H]2O)[C@@H](O)[C@@H]1O  hemoglobin (Homo sapiens, UniProt P68871+P69905)       224
1   OC[C@@H](O)[C@@H](O)[C@H](O)[C@@H](O)CO  hemoglobin (Homo sapiens, UniProt P68871+P69905)       235
2        O=C(CO)[C@@H](O)[C@H](O)[C@H](O)CO  hemoglobin (Homo sapiens, UniProt P68871+P69905)       230
3    OC[C@@H](O)[C@@H](O)[C@H](O)[C@H](O)CO  hemoglobin (Homo sapiens, UniProt P68871+P69905)       235

Next up:
The reported value for `OC[C@H]1O[C@H](O[C@H]2O[C@H](CO)[C@@H](O)[C@H](O)[C@H]2O)[C@H](O)[C@@H](O)[C@@H]1O` in terms of Hb concentration is 219

----------
- Test system: hemoglobin-haptoglobin complex
- Test Details: Stability of hemoglobin (as hemoglobin-haptoglobin complex) in samples preserved at 37° C. in preservation solution containing 1 unit/L haptoglobin, Hb measured by latex agglutination method (Examples 1 to 7)
- Design: species or system human
- Conditions Used: Feces 1; arylboronic acid 15 mmol/L; 37° C., 14 days
Test Readout: Hb concentration (µg/L)
One number for each entry, in µg/L.

Sample answers from the record:
In [3]: df
Out[3]:
                                   compound                target_or_system  observed
0                       O=C(O)c1ccccc1B(O)O  hemoglobin-haptoglobin complex       150
1                     O=C(O)c1ccc(B(O)O)cc1  hemoglobin-haptoglobin complex       234
2  OB(O)c1cccc(O)c1 [3H-PBA, 3-hydroxyphenylboronic acid]  hemoglobin-haptoglobin complex       268

// field: Hb concentration; key: `O=C(O)c1cccc(B(O)O)c1` ; value = 239

Data provenance is patent US12215140B2.
